# run.description: PK and tissue distribution after repeated oral administration in Ba/F3-EPOR-JAK2^V617F tumor-bearing mice
# Type: in vivo
# assay.context: BALB/c nude, mouse, stomach, oral, 30 mg/kg; repeated; 12 h; read-out: FM concentration, Stomach
parameter: concentration at 12 h (ng/g)
Answers are plain numbers, in ng/g.

Prompt: Which concentration at 12 h is listed for `Cc1cnc(Nc2ccc(N3CCC(N(C)CCO)CC3)c(F)c2)nc1-c1cnn(C(C)C)c1` ?
Response: 2490

---

# study.target: JAK1 (Homo sapiens)
# Sequence (P23458 whole entry): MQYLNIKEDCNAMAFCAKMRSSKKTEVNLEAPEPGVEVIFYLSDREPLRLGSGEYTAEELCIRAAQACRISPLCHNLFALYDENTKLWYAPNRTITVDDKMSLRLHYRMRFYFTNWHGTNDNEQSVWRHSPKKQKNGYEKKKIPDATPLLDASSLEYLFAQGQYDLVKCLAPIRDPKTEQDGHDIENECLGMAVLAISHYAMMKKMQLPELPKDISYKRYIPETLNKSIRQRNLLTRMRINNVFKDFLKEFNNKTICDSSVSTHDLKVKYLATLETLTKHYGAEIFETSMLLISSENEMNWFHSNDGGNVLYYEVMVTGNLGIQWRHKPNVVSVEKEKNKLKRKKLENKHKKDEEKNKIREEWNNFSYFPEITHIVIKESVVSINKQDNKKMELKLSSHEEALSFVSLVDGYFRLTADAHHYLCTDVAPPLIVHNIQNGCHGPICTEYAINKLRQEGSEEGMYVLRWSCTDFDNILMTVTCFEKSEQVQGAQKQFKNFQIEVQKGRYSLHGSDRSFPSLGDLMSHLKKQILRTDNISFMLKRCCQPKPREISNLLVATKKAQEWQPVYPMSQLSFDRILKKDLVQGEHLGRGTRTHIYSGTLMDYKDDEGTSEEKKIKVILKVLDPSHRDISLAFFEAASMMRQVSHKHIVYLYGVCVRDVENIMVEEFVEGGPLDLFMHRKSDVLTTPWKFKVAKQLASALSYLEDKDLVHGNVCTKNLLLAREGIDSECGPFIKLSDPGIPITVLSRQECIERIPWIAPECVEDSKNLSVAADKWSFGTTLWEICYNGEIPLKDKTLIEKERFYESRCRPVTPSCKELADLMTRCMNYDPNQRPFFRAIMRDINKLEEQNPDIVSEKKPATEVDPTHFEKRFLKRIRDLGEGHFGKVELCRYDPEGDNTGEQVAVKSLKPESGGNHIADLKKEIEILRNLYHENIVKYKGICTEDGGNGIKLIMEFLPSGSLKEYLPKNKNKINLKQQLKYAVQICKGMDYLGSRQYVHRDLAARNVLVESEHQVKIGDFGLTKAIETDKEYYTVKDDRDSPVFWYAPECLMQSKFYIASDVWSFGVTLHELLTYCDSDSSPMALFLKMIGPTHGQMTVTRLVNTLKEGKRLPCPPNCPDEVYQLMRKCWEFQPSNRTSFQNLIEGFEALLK
# run.description: In vitro kinase assay
# assay.context: read-out: JAK1 Enzyme IC50
parameter: pIC50
Give bare numbers, as −log10 of the molar value.

Prompt: Which pIC50 is listed for Cc1cnc(Nc2ccc(N3CCC(N(C)CCO)CC3)c(F)c2)nc1-c1cnn(C(C)C)c1 [FM] ?
Response: 6.16

---

# run.description: PK and tissue distribution after repeated oral administration in Ba/F3-EPOR-JAK2^V617F tumor-bearing mice
# Type: in vivo
# assay.context: BALB/c nude, mouse, brain, oral, 30 mg/kg; repeated; 8 h; read-out: FM concentration, Brain
parameter: concentration at 8 h (ng/g)
Answers are plain numbers, in ng/g.

Prompt: Which concentration at 8 h is listed for `Cc1cnc(Nc2ccc(N3CCC(N(C)CCO)CC3)c(F)c2)nc1-c1cnn(C(C)C)c1` ?
Response: 47

---

# run.description: PK and tissue distribution after single oral administration in Ba/F3-EPOR-JAK2^V617F tumor-bearing mice
# Assay type: in vivo
# assay.context: BALB/c nude, mouse, stomach, oral, 30 mg/kg; single; 8 h; read-out: FM concentration, Stomach
parameter: concentration at 8 h (ng/g)
Numbers only, in ng/g.

Prompt: Which concentration at 8 h is listed for `Cc1cnc(Nc2ccc(N3CCC(N(C)CCO)CC3)c(F)c2)nc1-c1cnn(C(C)C)c1` ?
Response: 6840

---

# run.description: PK and tissue distribution after repeated oral administration in Ba/F3-EPOR-JAK2^V617F tumor-bearing mice
# Format: in vivo
# assay.context: BALB/c nude, mouse, heart, oral, 30 mg/kg; repeated; 12 h; read-out: FM concentration, Heart
parameter: concentration at 12 h (ng/g)
Give bare numbers, in ng/g.

Prompt: Which concentration at 12 h is listed for `Cc1cnc(Nc2ccc(N3CCC(N(C)CCO)CC3)c(F)c2)nc1-c1cnn(C(C)C)c1` ?
Response: 15.8

---

# run.description: PK and tissue distribution after single oral administration in Ba/F3-EPOR-JAK2^V617F tumor-bearing mice
# Type: in vivo
# assay.context: BALB/c nude, mouse, heart, oral, 30 mg/kg; single; 8 h; read-out: FM concentration, Heart
parameter: concentration at 8 h (ng/g)
Numbers only, in ng/g.

Prompt: Which concentration at 8 h is listed for Cc1cnc(Nc2ccc(N3CCC(N(C)CCO)CC3)c(F)c2)nc1-c1cnn(C(C)C)c1 [FM] ?
Response: 199

---

# run.description: PK and tissue distribution after single oral administration in Ba/F3-EPOR-JAK2^V617F tumor-bearing mice
# Format: in vivo
# assay.context: BALB/c nude, mouse, brain, oral, 30 mg/kg; single; 4 h; read-out: FM concentration, Brain
parameter: concentration at 4 h (ng/g)
Answers are plain numbers, in ng/g.

Prompt: Which concentration at 4 h is listed for `Cc1cnc(Nc2ccc(N3CCC(N(C)CCO)CC3)c(F)c2)nc1-c1cnn(C(C)C)c1` ?
Response: 157

---

# run.description: PK and tissue distribution after single oral administration in Ba/F3-EPOR-JAK2^V617F tumor-bearing mice
# Format: in vivo
# assay.context: BALB/c nude, mouse, spleen, oral, 30 mg/kg; single; 8 h; read-out: FM concentration, Spleen
parameter: concentration at 8 h (ng/g)
Give bare numbers, in ng/g.

Prompt: Which concentration at 8 h is listed for `Cc1cnc(Nc2ccc(N3CCC(N(C)CCO)CC3)c(F)c2)nc1-c1cnn(C(C)C)c1` ?
Response: 1410

---

# run.description: PK and tissue distribution after repeated oral administration in Ba/F3-EPOR-JAK2^V617F tumor-bearing mice
# Type: in vivo
# assay.context: BALB/c nude, mouse, intestine, oral, 30 mg/kg; repeated; 4 h; read-out: FM concentration, Intestine
parameter: concentration at 4 h (ng/g)
Numbers only, in ng/g.

Prompt: Which concentration at 4 h is listed for `Cc1cnc(Nc2ccc(N3CCC(N(C)CCO)CC3)c(F)c2)nc1-c1cnn(C(C)C)c1` ?
Response: 9610

---

# run.description: PK and tissue distribution after repeated oral administration in Ba/F3-EPOR-JAK2^V617F tumor-bearing mice
# Format: in vivo
# assay.context: BALB/c nude, mouse, muscle, oral, 30 mg/kg; repeated; 0.5 h; read-out: FM concentration, Muscle
parameter: concentration at 0.5 h
Your answer should be a number followed by the unit of measure.

Prompt: Which concentration at 0.5 h is listed for `Cc1cnc(Nc2ccc(N3CCC(N(C)CCO)CC3)c(F)c2)nc1-c1cnn(C(C)C)c1` ?
Response: 415 ng/g

---

# Tested on: Ba/F3-JAK2^V617F
# run.description: MTT assay for cell proliferation
# Type: cell-based, Murine
# assay.context: Mus musculus; Ba/F3-JAK2^V617F; MTT 72 h; read-out: IC50(μM) ± SD, tumor cell proliferation
parameter: IC50 (µM)
Give bare numbers, in µM.

Prompt: Which IC50 is listed for Cc1cnc(Nc2ccc(OCCN3CCCC3)cc2)nc1Nc1cccc(S(=O)(=O)NC(C)(C)C)c1 [Fedratinib, reference compound] ?
Response: 0.61

---

# run.description: PK and tissue distribution after repeated oral administration in Ba/F3-EPOR-JAK2^V617F tumor-bearing mice
# Assay type: in vivo
# assay.context: BALB/c nude, mouse, liver, oral, 30 mg/kg; repeated; 4 h; read-out: FM concentration, Liver
parameter: concentration at 4 h
Your answer should be a number followed by the unit of measure.

Prompt: Which concentration at 4 h is listed for `Cc1cnc(Nc2ccc(N3CCC(N(C)CCO)CC3)c(F)c2)nc1-c1cnn(C(C)C)c1` ?
Response: 6660 ng/g

---

# run.description: PK and tissue distribution after repeated oral administration in Ba/F3-EPOR-JAK2^V617F tumor-bearing mice
# Format: in vivo
# assay.context: BALB/c nude, mouse, lung, oral, 30 mg/kg; repeated; 12 h; read-out: FM concentration, Lung
parameter: concentration at 12 h (ng/g)
Give bare numbers, in ng/g.

Prompt: Which concentration at 12 h is listed for Cc1cnc(Nc2ccc(N3CCC(N(C)CCO)CC3)c(F)c2)nc1-c1cnn(C(C)C)c1 [FM] ?
Response: 132
